method notes: A CellTox Green Cytotoxicity Assay to monitor cytotoxicity in HEK293 cells - 24 hour (AID 1224875); further: nearly all actives have a fitted effect of over 45% in size
applied conditions: CellTox Green fluorescence; series mostly up to 76.8 µM
Inconclusive results are not listed. The source made the active and inactive calls. The call rests on the fitted dose curve; in most records, active means well fitted activation curve with a large enough effect in the repeat runs; inconclusive means weak or mixed curves; inactive means flat fitted curve, though single readings scatter.

| smiles data | outcome |
| --- | --- |
| C=C(C)C(=O)OCCOCCOC(=O)C(=C)C | inactive |
| O=[N+]([O-])c1ccc(O/N=C/c2cc(Br)c(O)c(Br)c2)c([N+](=O)[O-])c1 | inactive |
| O=c1c(O)c(-c2ccc(O)cc2)oc2cc(O)cc(O)c12 | inactive |
| C=C1c2cccc(O)c2C(O)=C2C(=O)[C@]3(O)C(O)=C(C(N)=O)C(=O)[C@@H](N(C)C)[C@@H]3[C@@H](O)[C@H]12 | inactive |
| O=C=Nc1ccc(Cl)c(Cl)c1 | inactive |

----------
method notes: qHTS assay to identify small molecule agonists of the hypoxia (HIF-1) signaling pathway - cell viability counter screen (AID 1224844); further: nearly all actives have a fitted effect of over 50% in size
applied conditions: HRE-bla ME-180 viability, CellTiter-Glo luminescence, 17 h; series mostly up to 76.8 µM
Inconclusive results are not listed. Active and inactive are the calls of the source. Calls come from the whole dose curve.
Labels: active, inactive

| molecule | classification |
| --- | --- |
| O=C1c2ccccc2C(=O)N1CCc1noc(-c2ccc(CN3CCCCCC3)s2)n1 | inactive |
| CC(C)c1nc(CN(C)C(=O)N[C@H](C(=O)N[C@@H](Cc2ccccc2)C[C@H](O)[C@H](Cc2ccccc2)NC(=O)OCc2cncs2)C(C)C)cs1 | active |
| CC(C)C(O)(c1ccc(OC(F)(F)F)cc1)c1cncnc1 (stereo not drawn) | inactive |
| C[C@]1(Cn2ccnn2)[C@H](C(=O)O)N2C(=O)C[C@H]2S1(=O)=O | inactive |
| O=c1[nH]ncc2ccccc12 | inactive |
| CC=C(Cl)Cl | inactive |
| CCCCOc1ccc(OCCCN2CCOCC2)cc1 | inactive |
| C=C1CCC2CC1C2(C)C (stereo not drawn) | inactive |
| OCCOCC#CCOCCO | inactive |
| CCOC(=O)c1ccc(C#Cc2ccc3c(c2)C(C)(C)CCS3)nc1 | inactive |
| Oc1c(I)cc(I)c2cccnc12 | inactive |
| CC(=O)Nc1ccc(C)cc1C | inactive |
| CC(=O)[C@H]1[C@H](C#N)C[C@H]2[C@@H]3CC=C4C[C@@H](O)CC[C@]4(C)[C@H]3CC[C@@]21C | inactive |
| Cc1c(C)c2c(c(C)c1OC(=O)CCC(=O)OCCO)CC[C@@](C)(CCC[C@H](C)CCC[C@H](C)CCCC(C)C)O2 | inactive |
| O=C(Cn1ccnc1[N+](=O)[O-])NCCO | inactive |
| CN(C(=O)CN(CCO)CC(=O)N(C)C(C)(C)Cc1ccccc1)C(C)(C)Cc1ccccc1 | inactive |
| O=C1NCCN1CCO | inactive |
| CCCCN1CCCC1C(=O)Nc1c(C)cc(C)cc1C (stereo not drawn) | inactive |
| CCN(CC)CCNC(=O)COc1ccc(OC)cc1 | inactive |
| C1COC1 | inactive |
| CCC(C)COC(C)=O (stereo not drawn) | inactive |
| CCCCCC[C@@H](O)C/C=C\CCCCCCCC(=O)OCC(O)CO (stereo partly drawn) | inactive |
| CC(=O)OCC(=O)NCCCOc1cccc(CN2CCCCC2)c1 | inactive |
| O=C(O)C[C@H](NC(=O)OCc1ccccc1)C(=O)O | inactive |
| CCCCN(CCCC)C(C(N)=O)c1ccc(OC)cc1 (stereo not drawn) | inactive |
| C=CCc1ccccc1OCC(O)CNC(C)C (stereo not drawn) | inactive |
| CCCCCCCCCCCCCCN(CCO)CCO | active |
| CCOC(=O)OC(C)OC(=O)[C@@H]1N2C(=O)[C@@H](NC(=O)[C@H](N)c3ccccc3)[C@H]2SC1(C)C (stereo partly drawn) | inactive |
| CC(=O)Oc1ccc([N+](=O)[O-])cc1CCl | active |
| CCCC(=O)C(=O)O | inactive |
| O=c1cc(-c2ccccc2)oc2cc(O)cc(O)c12 | inactive |
| CC(=O)c1cc2ccccc2s1 | inactive |
| CN1C(=O)OC(C)(C)C1=O | inactive |

----------
method notes: qHTS assay to identify small molecule agonists of the sonic hedgehog signaling (Shh) pathway - cell viability counter screen (AID 1259366); further: nearly all actives have a fitted effect of over 50% in size
applied conditions: NIH/3T3 Gli1-Luc viability, CellTiter-Fluor, 24 h; series mostly up to 92.4 µM
Results filed as inconclusive are left out. The source made the active and inactive calls. Calls come from the whole dose curve; as a rule, active = well fitted cell-killing curve with a large enough effect in the repeat runs; inconclusive = weak or mixed curves, or effect the other way; inactive = flat fitted curve, though single readings scatter.
Classes used: active, inactive

| compound | classification |
| --- | --- |
| Cc1ccc(OC(=O)c2ccccc2O)cc1 | inactive |
| CCC1NC(=O)c2cc(S(N)(=O)=O)c(Cl)cc2N1 (stereo not drawn) | inactive |
| COc1ccccc1N1CCN(CCCCNC(=O)c2ccc(-c3ccc(C(C)=O)cc3)cc2)CC1 | inactive |
| Brc1cc(Br)c(Oc2cc(Br)c(Br)cc2Br)cc1Br | inactive |
| CCCCN1CCCC1C(=O)Nc1c(C)cc(C)cc1C (stereo not drawn) | inactive |
| O=c1c(O)c(-c2ccc(O)cc2)oc2cc(O)cc(O)c12 | inactive |
| CCOC(C)=O | inactive |
| Cc1ccc(Cl)c(Nc2ccccc2C(=O)O)c1Cl | inactive |
| CCC(=O)OC | inactive |
| O=C1c2ccccc2C(=O)N1CCc1noc(-c2ccc(CN3CCCCCC3)s2)n1 | inactive |
| COc1ccccc1Oc1c(NS(=O)(=O)c2ccc(C(C)(C)C)cc2)nc(-c2ncccn2)nc1OCCO | inactive |
| CC(=O)Oc1ccc([N+](=O)[O-])cc1CCl | active |
| CC(=O)OCC(=O)NCCCOc1cccc(CN2CCCCC2)c1 | inactive |
| O=C1Cc2cc(Cl)ccc2N1 | inactive |
| CC(=O)Nc1ccc(C)cc1C | inactive |
| CCCCCCCCN | inactive |
| Oc1c(I)cc(I)c2cccnc12 | inactive |
| Cc1cccc(N(C)C(=S)Oc2ccc3c(c2)CCC3)c1 | inactive |
| NCCNCCO | inactive |
| O=C1CCCCCCCCCCOCCCCO1 | inactive |
| CCCCCCCCCCCCCCN(CCO)CCO | active |
| CC(CCC(=O)O)C(=O)O (stereo not drawn) | inactive |
| CC1(C)S[C@@H]2[C@H](NC(=O)C(c3ccccc3)S(=O)(=O)O)C(=O)N2[C@H]1C(=O)O (stereo partly drawn) | inactive |
| CCCCN(CCCC)C(C(N)=O)c1ccc(OC)cc1 (stereo not drawn) | inactive |
| CCN(CC)CCNC(=O)COc1ccc(OC)cc1 | inactive |
| CCOc1cccc(-n2cc(C(=O)N3CCN(c4cc(C(=O)O)c5ccccc5c4)CC3)nc2-c2ccc(C)cc2)c1 | inactive |
| OC1(c2ccccc2)CCNCC1 | inactive |
| C[C@]12CC[C@@H]3c4ccc(O)cc4CC[C@H]3[C@@H]1CC[C@@H]2OC(=O)CCC1CCCC1 | active |
| O=c1cc(-c2ccccc2)oc2cc(O)cc(O)c12 | active |
| O=C=Nc1cccc(C(F)(F)F)c1 | inactive |
| Nc1ncnc2c1ncn2[C@H]1CC[C@@H](CO)O1 | inactive |
| CCC1(CO)COCOC1 | inactive |
| N#CCc1ccc(Cl)cc1Cl | inactive |
| CCCCCCNC(=O)n1cc(F)c(=O)[nH]c1=O | inactive |
| O=C(CCc1ccc(O)cc1)c1c(O)cc(O)cc1O | inactive |
| CCCCC(CC)CN (stereo not drawn) | inactive |
| Cc1cc2c(OCC(CNC(C)(C)C)OC(=O)c3ccccc3)cccc2[nH]1 (stereo not drawn) | inactive |
| C=C(C)C(=O)OCCCCCCCCCCCCC | inactive |
| CC(O)c1ccccc1 (stereo not drawn) | inactive |
| CCC(OCCCOC)OC(C)=O (stereo not drawn) | inactive |
| C=C(C)CCCC(C)CCO (stereo not drawn) | inactive |
| CCOC(=O)[C@H](CCc1ccccc1)N[C@@H](C)C(=O)N(CC(=O)O)C1Cc2ccccc2C1 | inactive |
| CCC1CO1 (stereo not drawn) | inactive |
| CC(C)c1nc(CN(C)C(=O)N[C@H](C(=O)N[C@@H](Cc2ccccc2)C[C@H](O)[C@H](Cc2ccccc2)NC(=O)OCc2cncs2)C(C)C)cs1 | active |
| C1C[C@@H]2[C@H]3CC[C@H](C3)[C@@H]2C1 | inactive |
| O=C(CCCN1CC=C(n2c(=O)[nH]c3ccccc32)CC1)c1ccc(F)cc1 | inactive |
| CC(=O)c1ccc([N+](=O)[O-])cc1 | inactive |
| CCCC(=O)C(=O)O | inactive |

----------
method notes: qHTS assay to identify aromatase inhibitors - cell viability counter screen (AID 743084);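 further: cells stimulated with testosterone during compound exposure; nearly all actives have a fitted effect of over 55% in size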
applied conditions: MCF-7 aro ERE viability, CellTiter-Fluor, 24 h; series mostly up to 70.3 µM
Results filed as inconclusive are left out. Active and inactive are the calls of the source. Calls come from the whole dose curve; as a rule, active = well fitted cell-killing curve with a large enough effect in the repeat runs; inconclusive = weak or mixed curves, or effect the other way; inactive = no such curve, though single readings can be large or run the other way.

| molecule | outcome |
| --- | --- |
| Nc1cccc2c1CN(C1CCC(=O)NC1=O)C2=O (stereo not given) | inactive |
| CO[C@]1(NC(=O)CSC(F)F)C(=O)N2C(C(=O)O)=C(CSc3nnnn3CCO)CO[C@H]21 | inactive |
| COc1ccccc1N1CCN(CC(O)COc2cccc3ccccc23)CC1 (stereo not given) | inactive |
| Cc1ccc(C(C)(C)O)cc1 | inactive |
| O=C(OC(=O)c1ccccc1)c1ccccc1 | inactive |
| CN1CCCC(n2nc(Cc3ccc(Cl)cc3)c3ccccc3c2=O)CC1 (stereo not given) | inactive |
| O=C=Nc1cccc(C(F)(F)F)c1 | inactive |
| FC(F)(F)c1ccccc1Cl | inactive |
| O=C(O)CCC(=O)C(=O)O | inactive |
| CCCCCC[C@@H](O)C/C=C\CCCCCCCC(=O)O | inactive |
| CCc1ccccc1 | inactive |
| C=C(C)[C@@H]1CCC2=CCC[C@@H](C)[C@]2(C)C1 | inactive |
| CC(=O)OCC[N+](C)(C)C | inactive |
| CCC(C)COC(C)=O (stereo not given) | inactive |
| O=C=Nc1ccc(Cl)c(Cl)c1 | inactive |
